All figures here come from patent US20230391876A1.

- TEST SYSTEM: T1, shFcRn (soluble human FcRn) (human, UniProt P55899 24-297; P61769 21-119)
- T1 construct: extracellular domain; Printed only as 'soluble human FcRn'; also called hFcRn (immobilized on a chip)
- T1 sequence (P55899 24-297 limits assumed, chain 1 of 2): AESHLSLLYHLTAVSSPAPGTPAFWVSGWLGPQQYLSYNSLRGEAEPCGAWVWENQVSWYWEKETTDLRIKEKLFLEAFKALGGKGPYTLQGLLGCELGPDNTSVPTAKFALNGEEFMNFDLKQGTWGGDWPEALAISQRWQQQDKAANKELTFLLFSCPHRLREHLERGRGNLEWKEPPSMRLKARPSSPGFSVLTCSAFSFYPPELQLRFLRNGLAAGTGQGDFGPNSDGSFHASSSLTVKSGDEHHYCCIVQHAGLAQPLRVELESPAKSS
- T1 sequence (P61769 21-119 limits assumed, chain 2 of 2): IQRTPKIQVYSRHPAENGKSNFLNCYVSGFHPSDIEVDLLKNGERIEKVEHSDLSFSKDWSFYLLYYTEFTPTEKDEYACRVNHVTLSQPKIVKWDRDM
- TEST METHOD NOTES: SPR, hFcRn immobilized on chip, pH 7.4
Each item that follows carries a reported pKd.
Field pKd (float): negative decimal logarithm of the concentration in molar.

Some binders with known pKd results, for comparison:
INSERT INTO results (binder, numeric_result) VALUES
  ('HL161AN variant No. 17 (LC:N25Q, HC:C32S Q82S) (antibody, human IgG1, V domains shown, Variable domains only) VL: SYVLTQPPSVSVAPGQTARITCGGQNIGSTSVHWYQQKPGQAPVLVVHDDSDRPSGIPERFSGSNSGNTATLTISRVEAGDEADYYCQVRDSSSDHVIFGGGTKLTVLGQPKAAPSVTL VH: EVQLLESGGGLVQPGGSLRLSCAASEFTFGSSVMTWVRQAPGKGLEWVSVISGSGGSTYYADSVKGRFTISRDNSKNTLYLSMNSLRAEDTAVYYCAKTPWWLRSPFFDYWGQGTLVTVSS', 9.52),
  ('HL161AN variant No. 3 (LC:N25S, HC:Q82S) (antibody, human IgG1, V domains shown, Variable domains only) VL: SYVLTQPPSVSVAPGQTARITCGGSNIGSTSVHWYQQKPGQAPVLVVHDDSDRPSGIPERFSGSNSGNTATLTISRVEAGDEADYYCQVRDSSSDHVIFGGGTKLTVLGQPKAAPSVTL VH: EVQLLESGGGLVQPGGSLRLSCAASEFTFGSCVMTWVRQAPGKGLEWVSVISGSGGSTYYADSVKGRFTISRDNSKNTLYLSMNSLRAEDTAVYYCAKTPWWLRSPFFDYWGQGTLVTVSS', 9.68),
  ('HL161AN variant No. 18 (LC:N25Q, HC:C32S Q82T) (antibody, human IgG1, V domains shown, Variable domains only) VL: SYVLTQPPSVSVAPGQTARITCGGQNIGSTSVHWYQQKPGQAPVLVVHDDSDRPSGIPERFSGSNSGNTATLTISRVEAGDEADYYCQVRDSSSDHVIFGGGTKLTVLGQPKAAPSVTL VH: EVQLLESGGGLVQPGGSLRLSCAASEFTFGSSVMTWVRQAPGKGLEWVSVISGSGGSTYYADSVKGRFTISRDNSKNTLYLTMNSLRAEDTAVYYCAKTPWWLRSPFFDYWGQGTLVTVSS', 9.48),
  ('HL161AN variant No. 20 (LC:N25Q, HC:C32Y Q82S) (antibody, human IgG1, V domains shown, Variable domains only) VL: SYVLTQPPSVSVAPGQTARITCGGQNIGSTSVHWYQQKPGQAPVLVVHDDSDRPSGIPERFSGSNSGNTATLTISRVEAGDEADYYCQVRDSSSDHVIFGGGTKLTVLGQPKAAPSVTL VH: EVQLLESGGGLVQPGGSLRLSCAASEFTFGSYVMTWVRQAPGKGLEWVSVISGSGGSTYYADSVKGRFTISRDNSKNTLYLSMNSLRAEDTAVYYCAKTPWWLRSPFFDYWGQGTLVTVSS', 9.46);

Now for the binder whose pKd we want.
For HL161AN variant No. 15 (LC:N25Q, HC:Q82T) (antibody, human IgG1, V domains shown, Variable domains only) VL: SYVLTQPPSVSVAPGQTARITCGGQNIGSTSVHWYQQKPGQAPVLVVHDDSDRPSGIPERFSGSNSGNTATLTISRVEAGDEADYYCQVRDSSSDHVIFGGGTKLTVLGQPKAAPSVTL VH: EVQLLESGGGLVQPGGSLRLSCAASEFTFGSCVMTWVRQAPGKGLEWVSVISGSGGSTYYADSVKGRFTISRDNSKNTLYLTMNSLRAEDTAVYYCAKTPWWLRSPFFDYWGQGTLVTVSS the binder record lists pKd as 9.44
